Source: patent EP4725966A1

target: T1, human HER3-ECD-His (human, UniProt P21860 20-643); experiment: Octet (BLI)
T1 construct: extracellular domain; Fusion protein of the extracellular domain of human HER3 and a His tag; also called hHER3-ECD-His; human HER3 extracellular domain protein; not shown: His tag
parameter.measured: kon

cHE1-G1W (antibody, human IgG1, V domains shown, also called chimeric HE1 antibody; not shown: human IgG1 heavy chain constant region, GenBank AXN93653.1; human kappa light chain constant region, GenBank AWK57456.1) VH: EVKLQESGPGLVKPSQSLSLTCSVTGYSITSGYYWNWIRQFPGNKLEWMGYISYDGSNNYNPSLKNRISITRDTSKNQFFLNLNSVTTEDTATYYCARVDWDGDAMDYWGQGTSVTVSS VL: DIVLTQSPASLAVSLGQRATISCRASESVDNYGIRLMHWYQQKSGQPPKLLIHRASNLESGIPARFSGSGSRTDFTLTINPVETDDVATYYCQQSNKDPFTFGSGTKLEIKR ... 728000 M⁻¹ s⁻¹
cHE2-G1W (antibody, human IgG1, V domains shown, also called chimeric HE2 antibody; not shown: human IgG1 heavy chain constant region, GenBank AXN93653.1; human kappa light chain constant region, GenBank AWK57456.1) VH: EVKLQESGPGLVKPSQSLSLTCSVTGYSITSGYYWNWIRQFPGNKLEWMGYISYDGSNNYNPSLKNRISITRDTSKNQFFLKLNSVTTEDTATYYCARMDWDGDAMDYWGQGTSVTVSS VL: DIVLTQSPASLAVSLGQRATISCRASESVDNYGISLMHWYQQKPGQPPKLLIYRASNLESGIPARFSGSGSRTDFTLTINPVETDDVATYYCQQSNKDPPTFGAGTKLELKR ... 861000 M⁻¹ s⁻¹
cHE6-G1W (antibody, human IgG1, V domains shown, also called chimeric HE6 antibody; not shown: human IgG1 heavy chain constant region, GenBank AXN93653.1; human kappa light chain constant region, GenBank AWK57456.1) VH: EVQLQQSGPDLVKPGTSVKMSCKASGYTFTDYYMHWVRQSHGKSLEWIGYINPNNGDAIYNQKFKGKATLTVNKSSTTAYMALRSLTSEDSAVYFCATYDYGGDFYFDVWGTGTTVTVSS VL: DIELTQSPALMSASPGEKVTMTCSASSSVSYMYWYQQKPRSSPKPWIYLTSNLASGVPARFSGSGSGTSYSLTISSMEAEDAATYYCQQWSRNPLTFGAGTKLELKR ... 450000 M⁻¹ s⁻¹

Now look at this entry.
Looking for the measured kon of cHE5-G1W (antibody, human IgG1, V domains shown, also called chimeric HE5 antibody; not shown: human IgG1 heavy chain constant region, GenBank AXN93653.1; human kappa light chain constant region, GenBank AWK57456.1) VH: EVQLQESGPGLVKPSQSLSLTCSVTGYSITSGYYWNWIRQFPGNKLEWMGYISYDGSNNYNPSLKNRISITRDTSKNQFFLKLNSVTTEDTATYYCASYDYDGDWFAYWGQGTLVTVSA VL: DIVLTQSPASLAVSLGQRATISCRASESVDHYGSSFMHWYQQKPGQPPKLLIYRASNPESGIPARFSGSGSRTDFTLTINPVETDDVATYYCQQSNKDPPTFGGGTKLEIKR , can you help?
710000 M⁻¹ s⁻¹
